Data provenance is PubChem BioAssay (NCI).

Test system: 786-0 renal
Assay: NCI tumour cell line growth inhibition, 48 h
*1 amine or outer side, *2 acyl side, *3 side chain or, on linkers, in order; H or OH if unused. Where a SMILES comes first, the peptide text is derived from it. Bridges are numbered along the chain shown (N, C = ends). [ ]: non-standard residue; d: D form. X59 = COc1c(N[*:1])cccc1C(=O)O[C@H](C(=O)[C@H](C)C(=O)[*:2])C(C)C; X58 = CC(C)C[C@H](C(=O)[*:2])C(C)C(=O)C1CCCN1[*:1]; NMeY = CN[C@@H](Cc1ccc(O)cc1)C(=O)O; Lac = C[C@H](O)C(=O)O
READOUT LABEL: TGI

- CC(C(=O)O)C1Nc2ccccc2NC1=O (stereo not given): > 100 µM
- COc1ccc(/C(=C\c2cc(OC)c(OC)c(OC)c2)C(=O)O)cc1: > 100 µM
- COC(=O)c1ccc(NC(N)=NCC(C)(C)COc2ccc(C(F)(F)F)cc2)nc1: 2.83 µM
- N/N=C(/CC(O)(C(F)(F)F)C(F)(F)F)c1ccccc1: > 10 µM
- C[CH2][Ge]([CH2]C)([CH2]C)[O]C(=O)C([O][Ge]([CH2]C)([CH2]C)[CH2]C)c1ccccc1 (stereo not given): 74.3 µM
- COc1cc2c(c(OC)c1OC)C(=O)c1c-2n(CCCN=[N+]=[N-])c(=O)c2cc([N+](=O)[O-])ccc12: > 100 µM
- O=C(Nc1nc(-c2ccccc2)cs1)c1cc(O)c(O)c(O)c1: 10.6 µM
- COc1cc(O)c2c(=O)c(OC)c(-c3ccc(OC)c(OC)c3)oc2c1.[Zn+2]: > 100 µM
- COC(=O)C1=C(C(=O)OC)C(OO)(c2ccccc2)OC1=O (stereo not given): > 100 µM
- CSC(=NC#N)S/C=C/C(=O)c1cccc2ccccc12: 43.5 µM
- Cc1ccc(S(=O)(=O)OI(O)CC(F)(F)F)cc1: > 100 µM
- COc1ccccc1Nc1nc2ccccc2c2occc12: 38.7 µM
- C/C(CC(=O)Nc1ccccc1)=N\NC(N)=S: > 100 µM
- C=C(CN(C)Cc1ccccc1)c1ccc(C(=O)Nc2ccccc2N)cc1: 27.3 µM
- Cc1cccc2cc3cccc(C(=O)NCCN(C)C)c3nc12: 11.5 µM
- O=c1oc2c(cc1-c1ccccc1)C(O)Oc1ccccc1-2 (stereo not given): > 100 µM
- Cc1ccc(C2=Nn3c(nc4sc5c(c4c3=O)CCCC5)SC2)cc1: > 100 µM
- CCC1(CC)C(=O)NN(C(=O)c2ccc(Cl)cc2)C1=O: > 100 µM
- Cc1ccc(/C=C2\CCCCCC2=O)cc1: > 100 µM
- C=CC[C@@]12CCC(=O)C=C1CCCC2=O: > 100 µM
- COC(=O)C1=CO[C@@H](OC2OC(CO)C(O)C(O)C2O)[C@@H]2[C@H](C)[C@@H](O)[C@@H](O)[C@]12O (stereo not given in full): > 100 µM
- COC(=O)/C=C/C(=O)Nc1cc(Cl)c(Cl)cc1CC(=O)N(C)[C@H]1CCCC[C@@H]1N1CCCC1: 22.1 µM
- Clc1ccc(-c2nc(C(Cl)Cl)nc3cc(-c4ccccc4)nn23)cc1: > 50 µM
- Cc1ccc(N(/C=C/C(=O)C(F)(F)F)CC(=O)c2ccc(Cl)c(Cl)c2)cc1: 26.3 µM
- O=C([CH-]C(=O)c1ccccc1)c1ccccc1.[CH3-].[CH3-].[CH3-].[Sn+4]: 33.1 µM
- COc1cc(/C=C2\CC(C)C/C(=C\c3ccc(O)c(OC)c3)C2=O)ccc1O (stereo not given): > 100 µM
- COc1ccc2oc(=O)c(-c3csc(-c4ccccc4)n3)cc2c1: 34.3 µM
- NC(=S)N/N=C/c1ccc(OC(=O)COc2ccccc2)cn1: > 100 µM
- CC(C)(C)Cc1cc(O)ccc1O: > 100 µM
- Brc1ccc(N=Nc2ccc3ccccc3n2)cc1: 27.1 µM
- COc1ccc(C[C@H]2C(=O)O[C@H](C)[C@H](NC(=O)[C@@H](CC(C)C)C(C)C(=O)C3CCCN3C(=O)[C@H](C)O)C(=O)Nc3cccc(c3OC)C(=O)O[C@@H](C(C)C)C(=O)[C@H](C)C(=O)N[C@@H](CC(C)C)C(=O)N3CCC[C@H]3C(=O)N2C)cc1 (stereo not given in full) (H-[Lac][X58]T[X59]LP[NMeY](Me); ester 3-C): > 12.5 µM
- O=C1Nc2ccccc2/C1=N/N1C(=O)/C(=C/c2ccccc2S)N=C1c1ccccc1: > 100 µM
- CC1CN=C(NS(=O)(=O)c2cc(C(=O)Nc3ccccc3)c(Cl)cc2S)NN1 (stereo not given): > 100 µM
- COc1ccc(C2CC(c3cccc(OC)c3)=NN2C(=O)c2cc(OC)c(OC)c(OC)c2)cc1 (stereo not given): > 100 µM
- Cc1nnc2n1N=C(c1ccc(-c3ccc([N+](=O)[O-])cc3)o1)CS2: > 100 µM
- O=C1Nc2ccc(CN3CCOC3=O)cc2/C1=C/c1cc(CN2CCOCC2)c[nH]1: > 100 µM
- CCOC(=O)Nc1ccc(C(=O)/C=C/c2ccccc2)cc1: 81.5 µM
- N=C1N=C(N)S/C1=C\c1ccc2ncccc2c1: > 25 µM
- OCCSCC/C(=N\N=C(/CCSCCO)c1ccccc1)c1ccccc1: > 100 µM
- C[C@@H]1CC[C@@H]2[C@@H]1[C@H](OC(=O)c1ccc3ccccc3c1)[C@]1(C3CCCCC3)C[C@@H](OC(=O)CO)[C@@]2(C)O1: 20 µM
